test system: nVLP GII.4; test: Surface plasmon resonance (SPR) screening of optimized peptides against GII.4; format: binding, Norovirus; conditions: SPR, unpurified peptides against nVLP GII.4
Simple rule here: % Stability less than 50% is 1, otherwise -1.

Task: is_below(% Stability, 50%) for RWVRVKLRSHTELNRYIGSC [Mut Peptide-93, optimized peptide] ?
Output: -1

Task: is_below(% Stability, 50%) for LLYNKTFPHGRWSPSYPGSC [nVLP-1WT] ?
Output: 1

Task: is_below(% Stability, 50%) for AWARSNNSRSKAFNLGWGSC [Mut Peptide-81, optimized peptide] ?
Output: 1

Task: is_below(% Stability, 50%) for SWARSNNKRSKAFNLGWGSC [Mut Peptide-78, optimized peptide] ?
Output: 1

Task: is_below(% Stability, 50%) for DWARKNNKRKMNFNLGWGSC [Mut Peptide-60, optimized peptide] ?
Output: 1

Task: is_below(% Stability, 50%) for RWHRVKLRSHTELNRYIGSC [Mut Peptide-92, optimized peptide] ?
Output: -1

Task: is_below(% Stability, 50%) for RWVRVKLRSHTKLRYIGSC [Mut Peptide-94, optimized peptide] ?
Output: -1

Task: is_below(% Stability, 50%) for RWHRVDLRSHTELPRYIGSC [nVLP-6WT] ?
Output: 1

The reported numbers originate from patent US20160153991A1.
